- test target: hNAMPT protein (Homo sapiens (Human), UniProt P43490)
- Sequence (P43490 whole entry): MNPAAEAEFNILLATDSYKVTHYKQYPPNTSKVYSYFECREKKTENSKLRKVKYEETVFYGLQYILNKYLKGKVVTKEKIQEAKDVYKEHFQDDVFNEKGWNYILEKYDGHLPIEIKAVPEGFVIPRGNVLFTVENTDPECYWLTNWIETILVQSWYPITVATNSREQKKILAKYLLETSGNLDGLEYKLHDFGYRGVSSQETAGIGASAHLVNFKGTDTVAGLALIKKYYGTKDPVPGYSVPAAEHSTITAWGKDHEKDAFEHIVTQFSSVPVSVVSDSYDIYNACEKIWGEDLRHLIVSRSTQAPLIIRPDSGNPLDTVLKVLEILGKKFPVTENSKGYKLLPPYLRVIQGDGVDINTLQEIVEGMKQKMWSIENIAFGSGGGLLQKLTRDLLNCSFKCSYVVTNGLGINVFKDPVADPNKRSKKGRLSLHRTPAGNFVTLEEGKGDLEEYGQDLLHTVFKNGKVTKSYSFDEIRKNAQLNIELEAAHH
value type: IC50

Would you mind giving IC50 for every compound in the list below?
1. CCOc1cc(-c2ccnc(C(F)(F)F)c2)nc2cc(C(=O)NCCCc3nnc[nH]3)ccc12 [Compound I-218]
2. CCOc1cc(-c2cnn(C)c2)nc2cc(C(=O)NCCCc3nnc[nH]3)ccc12 [Compound I-206]
3. COCCOCc1nc(-c2ccc(Cl)cc2)nc2cc(C(=O)NCCCc3nnc[nH]3)ccc12 [Compound I-64]
4. CCOc1cc(-c2ccn(C)c(=O)c2)nc2cc(C(=O)NCCCc3cc[nH]n3)ccc12 [Compound I-119]
5. CCOc1cc(-c2cccnc2)nc2cc(C(=O)NCCCc3nnc[nH]3)ccc12 [Compound I-209]
6. CCNc1cc(OCC)c2ccc(C(=O)NCCCc3ncc[nH]3)cc2n1 [Compound I-42]
7. CCCc1cc(-c2ccc(F)cc2)nc2cc(C(=O)NCCCc3cc[nH]n3)ccc12 [Compound I-147]
8. CCCc1nc(-c2ccc(Cl)cc2)nc2cc(C(=O)NCc3ccc4nccn4c3)ccc12 [Compound I-8]

1: 50 to 100 nM; 2: > 100 nM; 3: 50 to 100 nM; 4: 10 to 50 nM; 5: 50 to 100 nM; 6: > 100 nM; 7: 50 to 100 nM; 8: < 10 nM

Short answer for CCOc1cc(-c2ccnc(C)c2)nc2cc(C(=O)NCCc3cnn[nH]3)ccc12 [Compound I-181] : IC50 was > 100 nM

These measurements were taken from patent US10323018B2.
